assayName: Cmax in rat at 5 mg/kg, iv
Format: ADME, organism-based
Parameters: dose 5 mg/kg, route intravenous
measurementParameters: in vivo
experimentalReadout: Cmax

I have this compound here, `CCOc1cc([C@@H](CS(C)(=O)=O)N2C(=O)c3cccc(NC(C)=O)c3C2=O)ccc1OC` , and I need its recorded Cmax.
6.6 µg/mL

###

assayName: Volume of distribution at steady state in rat at 5 mg/kg, iv
Assay type: ADME, organism-based
Parameters: dose 5 mg/kg, route intravenous
measurementParameters: in vivo, read-out: Vdss
experimentalReadout: Vd (L/kg)
Report the value in L/kg with no unit label.

I have this molecule here, `CCOc1cc([C@@H](CS(C)(=O)=O)N2C(=O)c3cccc(NC(C)=O)c3C2=O)ccc1OC` , and I need its recorded Vd.
2
